- System: male rabbit
- measurement-notes: penis erection experiment in conscious male rabbits
- Format: in vivo
- applied-conditions: 0 min after i.v. administration (0.1 mg-3 mg/kg), conscious rabbits, average of 3 rabbits
- Protocol: (Bischoff E.; Schneider K, International Journal of Impotence Research, 2001, 13, 230 235) The hydrochloride of 3,7-dihydropyrrolo[2,3-d]pyrimidin-4-one derivatives was dissolved into water, and injected to conscious-rabbits intravenously (i.v.) (0.1 mg-3 mg/kg). Erection was accessed by comparing the length of penis before and at 0, 30, 60, 90 and 120 minutes after intravenous administration of the above-mentioned agents.
Met if Length of rabbit penis is below 2 mm. Not met if not; exact matches included in Not met.

> print(dat)
                                   compound  class.assignment
1  CCCn1cc(C)c2c(=O)[nH]c(-c3cc(S(=O)(=O)N4CCN(C)CC4)ccc3OCC)nc21.Cl [Compound 6-2HCl]               Met
2  CCCn1cc(C)c2c(=O)[nH]c(-c3cc(S(=O)(=O)N4CCN(Cc5ccccc5)CC4)ccc3OCC)nc21.Cl.Cl [Compound 19-2HCl]               Met
3  CCCn1cc(C)c2c(=O)[nH]c(-c3cc(S(=O)(=O)N4CCN(CC)CC4)ccc3OCC)nc21.Cl.Cl [Compound 1-2HCl]               Met
4  CCCn1cc(C)c2c(=O)[nH]c(-c3cc(S(=O)(=O)N4CCN(C(=O)OCC)CC4)ccc3OCC)nc21.Cl.Cl [Compound 8-2HCl]           Not met

Now let's try a different one.
Does the reported Length of rabbit penis of the following compound sit strictly below 2 mm? CCCn1cc(C)c2c(=O)[nH]c(-c3cc(S(=O)(=O)N4CCN(CC)CC4)ccc3OCC)nc21.Cl [Compound 1-HCl] Not met

* * *

- System: male rabbit
- measurement-notes: penis erection experiment in conscious male rabbits
- Format: in vivo
- applied-conditions: 60 min after i.v. administration (0.1 mg-3 mg/kg), conscious rabbits, average of 3 rabbits
Satisfied if Length of rabbit penis is below 4 mm. Not satisfied if not; exact matches included in Not satisfied.

// below: answered compounds
> print(dat)
                                   compound  class.assignment
1  CCCn1cc(C)c2c(=O)[nH]c(-c3cc(S(=O)(=O)N4CCN(C)CC4)ccc3OCC)nc21.Cl [Compound 6-2HCl]         Satisfied
2  CCCn1cc(C)c2c(=O)[nH]c(-c3cc(S(=O)(=O)N4CCN(C(=O)OCC)CC4)ccc3OCC)nc21.Cl.Cl [Compound 8-2HCl]         Satisfied
3  CCCn1cc(C)c2c(=O)[nH]c(-c3cc(S(=O)(=O)N4CCN(CC)CC4)ccc3OCC)nc21.Cl.Cl [Compound 1-2HCl]         Satisfied
4  CCCn1cc(C)c2c(=O)[nH]c(-c3cc(S(=O)(=O)N4CCN(CC)CC4)ccc3OCC)nc21.Cl [Compound 1-HCl]     Not satisfied

Now let's try a different one.
Does the reported Length of rabbit penis of the following compound sit strictly below 4 mm? CCCn1cc(C)c2c(=O)[nH]c(-c3cc(S(=O)(=O)N4CCN(Cc5ccccc5)CC4)ccc3OCC)nc21.Cl.Cl [Compound 19-2HCl] Not satisfied

* * *

- Test system: male rabbit
- measurement-notes: penis erection experiment in conscious male rabbits
- Format: in vivo
- applied-conditions: 120 min after i.v. administration (0.1 mg-3 mg/kg), conscious rabbits, average of 3 rabbits
The entries below are paired with their reported Length of rabbit penis.
Just the number please, in mm, no unit attached.

> print(dat)
                                   compound  scale.unit  reported.measurement
1  CCCn1cc(C)c2c(=O)[nH]c(-c3cc(S(=O)(=O)N4CCN(C)CC4)ccc3OCC)nc21.Cl [Compound 6-2HCl]          mm                   0.0
2  CCCn1cc(C)c2c(=O)[nH]c(-c3cc(S(=O)(=O)N4CCN(CC)CC4)ccc3OCC)nc21.Cl.Cl [Compound 1-2HCl]          mm                   1.0
3  CCCn1cc(C)c2c(=O)[nH]c(-c3cc(S(=O)(=O)N4CCN(C(=O)OCC)CC4)ccc3OCC)nc21.Cl.Cl [Compound 8-2HCl]          mm                   0.0
4  CCCn1cc(C)c2c(=O)[nH]c(-c3cc(S(=O)(=O)N4CCN(CC)CC4)ccc3OCC)nc21.Cl [Compound 1-HCl]          mm                   1.3

Quick one: Length of rabbit penis of CCCn1cc(C)c2c(=O)[nH]c(-c3cc(S(=O)(=O)N4CCN(Cc5ccccc5)CC4)ccc3OCC)nc21.Cl.Cl [Compound 19-2HCl] ? 0.0

* * *

The entries below are paired with their reported Length of rabbit penis.
- Tested on: male rabbit
- measurement-notes: penis erection experiment in conscious male rabbits
- Assay type: in vivo
- applied-conditions: 90 min after i.v. administration (0.1 mg-3 mg/kg), conscious rabbits, average of 3 rabbits
Just the number please, in mm, no unit attached.

Solved entries (count: 3):
> print(dat)
                                   molecule  reported.measurement
1  CCCn1cc(C)c2c(=O)[nH]c(-c3cc(S(=O)(=O)N4CCN(C(=O)OCC)CC4)ccc3OCC)nc21.Cl.Cl [Compound 8-2HCl]                   0.7
2  CCCn1cc(C)c2c(=O)[nH]c(-c3cc(S(=O)(=O)N4CCN(C)CC4)ccc3OCC)nc21.Cl [Compound 6-2HCl]                   1.7
3  CCCn1cc(C)c2c(=O)[nH]c(-c3cc(S(=O)(=O)N4CCN(CC)CC4)ccc3OCC)nc21.Cl [Compound 1-HCl]                   2.0

Quick one: Length of rabbit penis of CCCn1cc(C)c2c(=O)[nH]c(-c3cc(S(=O)(=O)N4CCN(CC)CC4)ccc3OCC)nc21.Cl.Cl [Compound 1-2HCl] ? 1.0

Quick one: Length of rabbit penis of CCCn1cc(C)c2c(=O)[nH]c(-c3cc(S(=O)(=O)N4CCN(Cc5ccccc5)CC4)ccc3OCC)nc21.Cl.Cl [Compound 19-2HCl] ? 4.0
